target_or_test_system: CDK2/cyclin E (Homo sapiens, UniProt P24941)
assay_procedure: biochemical
pIC50: −log10 of the molar value.
assay_endpoint: pIC50

molecule | target_or_test_system | assay_endpoint | cmp | test_result
COP(=O)(Oc1ccc2[nH]nc(-c3cc4ccccc4[nH]3)c2c1)C1CCCCC1 (stereo not shown) | CDK2/cyclin E (Homo sapiens, UniProt P24941) | pIC50 | = | 5.83
O=P(Oc1ccc2[nH]nc(/C=C/c3ccccc3)c2c1)(c1ccccc1)c1ccccc1 | CDK2/cyclin E (Homo sapiens, UniProt P24941) | pIC50 | = | 6.00
COP(=O)(Oc1ccc2[nH]ncc2c1)c1ccccc1 (stereo not shown) | CDK2/cyclin E (Homo sapiens, UniProt P24941) | pIC50 | < | 5.00
COP(=O)(O)c1ccc2[nH]nc(-c3cccs3)c2c1 | CDK2/cyclin E (Homo sapiens, UniProt P24941) | pIC50 | < | 5.00

###

target_or_test_system: UniProt:O14965
assay_procedure: biochemical
# Lookup of reported log10 of IC50 keyed by entry
assay_endpoint: log10 of IC50 (log10 of the value in nM)

molecule | log10 of IC50
COP(=O)(Oc1ccc2[nH]nc(-c3ccc[nH]3)c2c1)c1ccccc1 (stereo not drawn) | 1.95
CP(C)(=O)Oc1ccc2[nH]nc(-c3cc4ccccc4[nH]3)c2c1 | 1.30
COc1ccc2[nH]c(-c3n[nH]c4ccc(OP(=O)(OC)c5ccccc5)cc34)cc2n1 (stereo not drawn) | 1.38
CP(=O)(Oc1ccc2[nH]nc(/C=C/c3ccccc3)c2c1)c1ccccc1 (stereo not drawn) | 1.57
COP(=O)(Oc1ccc2[nH]ncc2c1)c1ccccc1 (stereo not drawn) | 3.96
O=P(Oc1ccc2[nH]nc(-c3cc4ccccc4[nH]3)c2c1)(c1ccccc1)c1ccccc1 | 2.00

###

Entries and their IC50
target_or_test_system: Aurora2 kinase (Homo sapiens)
assay_procedure: biochemical
assay_endpoint: IC50 (nM)

molecule | target_or_test_system | display_unit | test_result
CC(C)OP(=O)(Oc1ccc2[nH]nc(-c3cc4ccccc4[nH]3)c2c1)c1ccccc1 (centres unmarked) [Example 07] | Aurora2 kinase (Homo sapiens) | nM | 24
COP(=O)(O)c1ccc2[nH]nc(-c3cc4ccccc4[nH]3)c2c1 [Example 15] | Aurora2 kinase (Homo sapiens) | nM | 108
O=P(OCc1ccccc1)(Oc1ccc2[nH]nc(-c3cc4ccccc4[nH]3)c2c1)c1ccccc1 (centres unmarked) [Example 08] | Aurora2 kinase (Homo sapiens) | nM | 53
COP(=O)(Oc1ccc2[nH]nc(-c3cc4ccccc4s3)c2c1)c1ccccc1 (centres unmarked) [Example 27] | Aurora2 kinase (Homo sapiens) | nM | 134
O=P(Oc1ccc2[nH]nc(/C=C/c3ccccc3)c2c1)(c1ccccc1)c1ccccc1 [Example 02] | Aurora2 kinase (Homo sapiens) | nM | 75
COP(=O)(Oc1ccc2[nH]nc(-c3cc4ccccc4[nH]3)c2c1)c1ccccc1 (centres unmarked) [Example 06] | Aurora2 kinase (Homo sapiens) | nM | 15
COP(=O)(OC)c1ccc2[nH]nc(/C=C/c3ccccc3)c2c1 [Example 12] | Aurora2 kinase (Homo sapiens) | nM | 140
CP(=O)(Oc1ccc2[nH]nc(-c3cc4cc(OCCN5CCOCC5)ccc4[nH]3)c2c1)c1ccccc1 (centres unmarked) [Example 05] | Aurora2 kinase (Homo sapiens) | nM | 15

###

target_or_test_system: human Tie2 (Homo sapiens)
Sequence (Q02763 776-1124): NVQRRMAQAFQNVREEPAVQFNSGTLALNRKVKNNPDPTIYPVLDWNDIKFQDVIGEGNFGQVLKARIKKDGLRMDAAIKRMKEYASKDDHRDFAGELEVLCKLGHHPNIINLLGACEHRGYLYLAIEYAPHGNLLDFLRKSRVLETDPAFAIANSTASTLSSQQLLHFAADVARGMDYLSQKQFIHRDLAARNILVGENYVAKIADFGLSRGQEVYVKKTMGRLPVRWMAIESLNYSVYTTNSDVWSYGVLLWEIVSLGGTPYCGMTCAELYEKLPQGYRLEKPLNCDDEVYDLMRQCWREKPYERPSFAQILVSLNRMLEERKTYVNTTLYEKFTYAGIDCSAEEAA
Label scheme, based on IC50: low (below 30 nM), moderate (30 nM to below 200 nM), high (200 nM or more)

compound | class_assignment
COP(=O)(Oc1ccc2[nH]nc(-c3ccc[nH]3)c2c1)c1ccccc1 (centres unmarked) | high
COP(=O)(Oc1ccc2[nH]nc(-c3cc4ccccc4[nH]3)c2c1)c1ccccc1 (centres unmarked) | moderate
COP(=O)(O)c1ccc2[nH]nc(-c3cc4ccccc4[nH]3)c2c1 | high
COP(=O)(O)c1ccc2[nH]nc(-c3cccs3)c2c1 | high
CP(=O)(Oc1ccc2[nH]nc(-c3cc4ccccc4[nH]3)c2c1)c1ccccc1 (centres unmarked) | low
O=P(OCc1ccccc1)(Oc1ccc2[nH]nc(-c3cc4ccccc4[nH]3)c2c1)c1ccccc1 (centres unmarked) | moderate
CC(C)OP(=O)(Oc1ccc2[nH]nc(-c3cc4ccccc4[nH]3)c2c1)c1ccccc1 (centres unmarked) | moderate
O=P(Oc1ccc2[nH]nc(/C=C/c3ccccc3)c2c1)(c1ccccc1)c1ccccc1 | high
COP(=O)(Oc1ccc2[nH]nc(-c3cc4ccccc4[nH]3)c2c1)C1CCCCC1 (centres unmarked) | moderate
COP(=O)(Oc1ccc2[nH]ncc2c1)c1ccccc1 (centres unmarked) | high
COP(=O)(Oc1ccc2[nH]nc(-c3cc4ccccc4s3)c2c1)c1ccccc1 (centres unmarked) | high
COP(=O)(OC)c1ccc2[nH]nc(/C=C/c3ccccc3)c2c1 | high
CCOP(=O)(OCC)c1ccc2[nH]nc(/C=C/c3ccccc3)c2c1 | high
CP(=O)(Oc1ccc2[nH]nc(-c3cc4cc(OCCN5CCOCC5)ccc4[nH]3)c2c1)c1ccccc1 (centres unmarked) | low
O=P(Oc1ccc2[nH]nc(-c3cc4ccccc4[nH]3)c2c1)(c1ccccc1)c1ccccc1 | low
O=P(O)(Oc1ccc2[nH]nc(-c3cc4ccccc4[nH]3)c2c1)c1ccccc1 | low
CP(C)(=O)Oc1ccc2[nH]nc(-c3cc4ccccc4[nH]3)c2c1 | moderate
COc1ccc2[nH]c(-c3n[nH]c4ccc(OP(=O)(OC)c5ccccc5)cc34)cc2n1 (centres unmarked) | low
CP(=O)(Oc1ccc2[nH]nc(/C=C/c3ccccc3)c2c1)c1ccccc1 (centres unmarked) | moderate

###

target_or_test_system: CDK2/cyclin E (Homo sapiens, UniProt P24941)
assay_procedure: biochemical
pIC50: −log10 of the molar value.
Entry flag: 1 if pIC50 reaches 6; -1 if it does not.

compound | class_assignment
COP(=O)(O)c1ccc2[nH]nc(-c3cc4ccccc4[nH]3)c2c1 | -1
COP(=O)(Oc1ccc2[nH]nc(-c3ccc[nH]3)c2c1)c1ccccc1 (centres unmarked) | 1
COc1ccc2[nH]c(-c3n[nH]c4ccc(OP(=O)(OC)c5ccccc5)cc34)cc2n1 (centres unmarked) | 1
O=P(O)(Oc1ccc2[nH]nc(-c3cc4ccccc4[nH]3)c2c1)c1ccccc1 | 1
O=P(OCc1ccccc1)(Oc1ccc2[nH]nc(-c3cc4ccccc4[nH]3)c2c1)c1ccccc1 (centres unmarked) | -1
COP(=O)(OC)c1ccc2[nH]nc(/C=C/c3ccccc3)c2c1 | 1
COP(=O)(Oc1ccc2[nH]nc(-c3cc4ccccc4s3)c2c1)c1ccccc1 (centres unmarked) | -1
CP(=O)(Oc1ccc2[nH]nc(/C=C/c3ccccc3)c2c1)c1ccccc1 (centres unmarked) | 1
CP(C)(=O)Oc1ccc2[nH]nc(-c3cc4ccccc4[nH]3)c2c1 | 1
COP(=O)(Oc1ccc2[nH]nc(/C=C/c3ccccc3)c2c1)c1ccccc1 (centres unmarked) | 1
O=P(Oc1ccc2[nH]nc(-c3cc4ccccc4[nH]3)c2c1)(c1ccccc1)c1ccccc1 | 1
CCOP(=O)(Oc1ccc2[nH]nc(-c3cc4nc(OC)ccc4[nH]3)c2c1)c1ccccc1 (centres unmarked) | 1
COP(=O)(Oc1ccc2[nH]nc(-c3cc4ccccc4[nH]3)c2c1)c1ccccc1 (centres unmarked) | 1
CP(=O)(Oc1ccc2[nH]nc(-c3cc4cc(OCCN5CCOCC5)ccc4[nH]3)c2c1)c1ccccc1 (centres unmarked) | 1
CP(=O)(Oc1ccc2[nH]nc(-c3cc4ccccc4[nH]3)c2c1)c1ccccc1 (centres unmarked) | 1

###

compounds and their reported IC50
target_or_test_system: Aurora2 kinase (Homo sapiens, UniProt O14965)
Sequence (O14965 whole entry): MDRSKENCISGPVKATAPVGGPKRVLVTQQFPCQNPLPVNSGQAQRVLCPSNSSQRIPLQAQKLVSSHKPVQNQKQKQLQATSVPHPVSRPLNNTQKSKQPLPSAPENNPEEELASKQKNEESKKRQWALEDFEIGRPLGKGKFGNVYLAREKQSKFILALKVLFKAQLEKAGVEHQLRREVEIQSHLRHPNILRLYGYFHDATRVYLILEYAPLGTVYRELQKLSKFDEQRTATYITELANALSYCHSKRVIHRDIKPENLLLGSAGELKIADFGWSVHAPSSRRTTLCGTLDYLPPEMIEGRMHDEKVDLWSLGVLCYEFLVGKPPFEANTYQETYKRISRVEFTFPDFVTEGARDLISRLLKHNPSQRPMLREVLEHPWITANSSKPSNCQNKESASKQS
assay_procedure: biochemical
assay_endpoint: IC50

compound | test_result
COP(=O)(Oc1ccc2[nH]nc(-c3cc4ccccc4[nH]3)c2c1)C1CCCCC1 (stereo not drawn) | 26 nM
CCOP(=O)(OCC)c1ccc2[nH]nc(/C=C/c3ccccc3)c2c1 | 76 nM
COP(=O)(O)c1ccc2[nH]nc(-c3cccs3)c2c1 | 2200 nM
COP(=O)(O)c1ccc2[nH]nc(/C=C/c3ccccc3)c2c1 | 69 nM
O=P(O)(Oc1ccc2[nH]nc(-c3cc4ccccc4[nH]3)c2c1)c1ccccc1 | 10 nM
CCOP(=O)(Oc1ccc2[nH]nc(-c3cc4nc(OC)ccc4[nH]3)c2c1)c1ccccc1 (stereo not drawn) | 24 nM
CP(=O)(Oc1ccc2[nH]nc(-c3cc4ccccc4[nH]3)c2c1)c1ccccc1 (stereo not drawn) | 20 nM
COP(=O)(Oc1ccc2[nH]nc(/C=C/c3ccccc3)c2c1)c1ccccc1 (stereo not drawn) | 41 nM
COP(=O)(O)c1ccc2[nH]nc(-c3ccc[nH]3)c2c1 | 770 nM

###

target_or_test_system: Aurora2 kinase (Homo sapiens, UniProt O14965)
assay_procedure: biochemical
details: read-out: Au2 IC50
pIC50: −log10 of the molar value.

compound | pIC50
COP(=O)(Oc1ccc2[nH]nc(-c3cc4ccccc4s3)c2c1)c1ccccc1 (stereo not shown) | 6.14
